Would you kindly list α1 [%] for each of these compounds?
- System: adrenergic α1 receptor
- Protocol: Binding assay α1 (non-selective), [3H]prazosin, rat cerebral cortex
- Experimental Conditions: percent inhibition of control specific binding; compounds tested at 1×10^−6 M

[
  {
    "Record Smiles": "Cc1[nH]c2ccc(Cl)cc2c1C1=CCN(CCCNS(=O)(=O)c2cccc(Cl)c2)CC1",
    "α1 [%]": "8%"
  }
]

Would you mind giving α1 [%] for every compound in the list below?
1. O=S(=O)(NCCN1CCC(c2noc3cc(F)ccc23)CC1)c1ccc2ccccc2c1
2. O=S(=O)(NCCCN1CCN(c2nsc3ccccc23)CC1)c1ccc(OC(F)(F)F)cc1
3. O=S(=O)(NCCCCN1CCN(c2cccc3c2OCCO3)CC1)c1cccc(Br)c1
4. O=S(=O)(NCCCCN1CCC(c2noc3cc(F)ccc23)CC1)c1ccc(Br)cc1
5. N#Cc1cccc(S(=O)(=O)NCCCCN2CCC(c3noc4cc(F)ccc34)CC2)c1
6. Cn1ccc2c(S(=O)(=O)NCCCCN3CCC(c4noc5cc(F)ccc45)CC3)cccc21
7. O=S(=O)(NCCCN1CCN(c2nsc3ccccc23)CC1)c1cccc(O)c1
8. O=S(=O)(NCCCCN1CCC(c2noc3cc(F)ccc23)CC1)c1ccc(F)c(Cl)c1

Ans.
1: 97%; 2: 88%; 3: 90%; 4: 103%; 5: 99%; 6: 107%; 7: 96%; 8: 98%

Provide α1 [%] for all items below, preserving their order.
1. O=S(=O)(NCCCCN1CCN(c2noc3ccccc23)CC1)c1ccc(Br)cc1
2. O=S(=O)(NCCCCN1CCN(c2cccc3c2OCCO3)CC1)c1ccc(F)c(F)c1
3. O=S(=O)(NCCCN1CC=C(c2c[nH]c3ccc(F)cc23)CC1)c1cccc(O)c1
4. O=S(=O)(NCCCCN1CCN(c2noc3ccccc23)CC1)c1ccc2ccccc2c1
5. O=S(=O)(NCCCCN1CCC(c2noc3cc(F)ccc23)CC1)c1ccc(F)cc1
6. O=S(=O)(NCCCCN1CCN(c2nsc3ccccc23)CC1)c1cccs1
7. O=S(=O)(NCCCCN1CCN(c2noc3ccccc23)CC1)c1c[nH]c2ncccc12

Ans.
1: 99%; 2: 93%; 3: 52%; 4: 102%; 5: 101%; 6: 103%; 7: 98%

---

- Assay Target: UniProtKB P08908
- Sequence (P08908 whole entry): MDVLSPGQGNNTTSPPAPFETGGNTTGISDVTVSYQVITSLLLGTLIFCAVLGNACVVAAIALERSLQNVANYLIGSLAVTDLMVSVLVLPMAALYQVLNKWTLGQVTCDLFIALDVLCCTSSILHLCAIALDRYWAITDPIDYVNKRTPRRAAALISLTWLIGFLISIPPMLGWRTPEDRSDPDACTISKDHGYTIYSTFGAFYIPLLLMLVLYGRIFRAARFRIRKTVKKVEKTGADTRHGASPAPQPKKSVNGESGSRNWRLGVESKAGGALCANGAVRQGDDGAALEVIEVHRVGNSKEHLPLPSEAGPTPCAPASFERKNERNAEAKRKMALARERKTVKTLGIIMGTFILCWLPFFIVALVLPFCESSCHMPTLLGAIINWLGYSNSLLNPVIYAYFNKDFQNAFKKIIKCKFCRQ
- Protocol: Binding assay 5-HT1A (h), [3H]8-OH-DPAT, HEK-293 cells
- Parameters: expressed in transfected cells; host or cells: HEK-293 cells
- Experimental Conditions: read-out: 5-HT1A
Returns the class for an entry based on its inhibition at 1 µM. Class ranges: low interval = under 70%, middle interval = from 70% up to 90%, high interval = 90% and over

Illustrative cases are given below, each with its answer.
[
  {
    "Record Smiles": "O=S(=O)(NCCCCN1CCN(c2cccc3[nH]ccc23)CC1)c1ccc2ccccc2c1",
    "Label Value": "high interval"
  },
  {
    "Record Smiles": "O=S(=O)(NCCCCN1CCN(c2noc3ccccc23)CC1)c1cc2ccc(Cl)cc2s1",
    "Label Value": "middle interval"
  },
  {
    "Record Smiles": "O=S(=O)(NCCCCN1CCN(c2cccc3c2OCCO3)CC1)c1cccs1",
    "Label Value": "high interval"
  },
  {
    "Record Smiles": "O=S(=O)(NCCCCN1CCN(c2cccc3c2OCCO3)CC1)c1ccc(-c2ccccc2)cc1",
    "Label Value": "middle interval"
  },
  {
    "Record Smiles": "Cc1[nH]c2ccc(Cl)cc2c1C1=CCN(CCCNS(=O)(=O)c2ccc(F)cc2)CC1",
    "Label Value": "low interval"
  }
]

Qu. Please let me know in which category the item O=S(=O)(NCCCN1CCC(c2noc3cc(F)ccc23)CC1)c1cccc(Br)c1 belongs.
Ans. low interval

Qu. Quick check: band for O=S(=O)(NCCCCN1CCN(c2cccc3[nH]ccc23)CC1)c1ccc2cc(Cl)ccc2c1
Ans. high interval

Qu. Assign a bin to O=S(=O)(NCCN1CCN(c2nsc3ccccc23)CC1)c1ccc2ccccc2c1
Ans. high interval

Qu. Each compound maps to one class by inhibition at 1 µM. Which class for O=S(=O)(NCCCCN1CCN(c2cccc3[nH]ccc23)CC1)c1cccc(F)c1 ?
Ans. high interval

Qu. # bin lookup: classify O=S(=O)(NCCCCN1CCN(c2nsc3ccccc23)CC1)c1ccc(Cl)c(Cl)c1 by its inhibition at 1 µM
Ans. middle interval

Qu. Please let me know in which category the item Cc1cccc(S(=O)(=O)NCCCN2CCN(c3cccc4[nH]c(=O)[nH]c34)CC2)c1 belongs.
Ans. middle interval

Qu. Category of Cc1[nH]c2ccc(Cl)cc2c1C1=CCN(CCCCNS(=O)(=O)c2cccc(F)c2)CC1 :
Ans. low interval

Qu. Hi there! Could you help me figure out the category for O=C1COc2c(cccc2N2CCN(CCCCNS(=O)(=O)c3cccc(F)c3)CC2)N1 please?
Ans. middle interval

Qu. Form: Item = O=S(=O)(NCCCCN1CCC(c2noc3cc(F)ccc23)CC1)c1ccc2c(c1)OCCO2 ; Class = ?
Ans. middle interval

Qu. Consider N#Cc1cccc(S(=O)(=O)NCCCCN2CCN(c3noc4ccccc34)CC2)c1 . To which inhibition at 1 µM class does it belong?
Ans. low interval

Qu. Please report the category associated with N#Cc1cccc(S(=O)(=O)NCCCCN2CCC(c3noc4cc(F)ccc34)CC2)c1 , nothing else.
Ans. low interval

Qu. In plain terms, what class is O=S(=O)(NCCCCN1CCC(c2noc3cc(F)ccc23)CC1)c1cc2ccccc2o1 ?
Ans. middle interval

Qu. Band for O=S(=O)(NCCCN1CCC(c2noc3cc(F)ccc23)CC1)c1ccc(F)c(Cl)c1 ?
Ans. middle interval

Qu. Where would O=S(=O)(NCCCCN1CCC(c2noc3cc(F)ccc23)CC1)c1ccc(Cl)c(Cl)c1 land among the classes by reported inhibition at 1 µM?
Ans. low interval

Qu. Class? Entry: Cc1[nH]c2ccc(Cl)cc2c1C1=CCN(CCCCNS(=O)(=O)c2ccc(F)cc2)CC1
Ans. low interval

From: patent US8822517B2
